Source listed as ChEMBL document CHEMBL3988442.

system: Plasmodium falciparum; assay: Calibr Malaria Delayed Death Assay SOP; type: functional, organism-based; parameters: scale not given: in the data most compounds retested in dose-response had high values; conditions: concentration 4.99e-06 (unit not given; other assays of the set use mol/L)
The whole screen tested about 38,000 compounds, of which about 1,200 (3.2%) showed an effect of 50% or more. The median lay at about -58%. Only a selection was taken, and strong results are over-represented in it overall.
Could you mark each record TRUE if its Percent Effect falls strictly under -20%, and FALSE if it equals or exceeds it?

>>> category("O=C(O)C(F)(F)F.O=C(O)C(F)(F)F.c1cncc(OC[C@]23COC[C@H]2CN(Cc2nccs2)C3)c1")
"TRUE"
>>> category("O=C(NC(CN1CCCC1)c1ccccc1)c1c(O)cc(F)cc1F (configuration not stated)")
"TRUE"
>>> category("Cc1ccc(CNC(CN2CCN(C)CC2)c2ccccc2)cc1C (configuration not stated)")
"TRUE"
>>> category("COc1ncccc1CNC1CCc2c(ccc(=O)n2CC2CC2)C1.O=C(O)C(F)(F)F.O=C(O)C(F)(F)F (configuration not stated)")
"TRUE"
>>> category("CN1CCN(CC(NCc2ccc(F)cc2)c2ccccc2)CC1 (configuration not stated)")
"TRUE"
>>> category("Cc1ccc(O)c(CNc2cccc(CN3CCSCC3)c2)n1")
"FALSE"
>>> category("COc1cc2c(cc1CN1CCCCC1CN1CCOCC1)CCC2 (configuration not stated)")
"FALSE"
>>> category("Cc1cnn(CC2CN(Cc3nc(C4CC4)no3)CCO2)c1 (configuration not stated)")
"FALSE"
>>> category("COc1ccc2cnn(CC(=O)NC3CCCCC3)c(=O)c2c1OC")
"TRUE"
>>> category("c1coc(CN2CCn3c(nc4ccccc43)C2)c1")
"TRUE"
>>> category("Cn1cc(C2CCCN2CCc2nc3ccccc3c(=O)[nH]2)cn1 (configuration not stated)")
"TRUE"
>>> category("COc1ccc(OC)c(-n2cnnc2CCN)c1")
"TRUE"
>>> category("Clc1ccc(CN2CCCC(Cn3cncn3)C2)c2ncccc12 (configuration not stated)")
"FALSE"
>>> category("COc1cccc(C(=O)N2CCN(CC(O)c3ccccc3)CC2)c1 (configuration not stated)")
"TRUE"
>>> category("Cc1cnc(CN(C)Cc2cc3c(cc2OC(F)F)OCO3)o1")
"TRUE"
>>> category("COc1cccc(CN2CCCCC2CN2CCOCC2)c1F (configuration not stated)")
"FALSE"
>>> category("CC(=O)N1CCC(Oc2ccc(Cl)cc2C(=O)N2CCCO2)CC1")
"TRUE"
>>> category("Oc1ccc(N2CCC(Cc3ccccc3)CC2)nn1")
"TRUE"
>>> category("O=C(O)C(F)(F)F.c1cnc(N2CCOC3(CCN(CC4CCOC4)CC3)C2)nc1 (configuration not stated)")
"FALSE"
>>> category("COc1ccc2c(ccn2CCC(=O)Nc2ccc(C(N)=O)cc2)c1")
"TRUE"
>>> category("CCOc1ccccc1NC(=O)NCCc1ccoc1")
"TRUE"
>>> category("CCNc1ncc(CN(Cc2ccccc2)CC(C)CO)cn1 (configuration not stated)")
"FALSE"
>>> category("Cc1cccnc1CN(C)c1ncnc2[nH]ccc12")
"TRUE"
>>> category("Cc1cc(C)c(S(=O)(=O)Nc2cccc3c2OCCO3)cc1C(=O)O")
"TRUE"
>>> category("CCCOc1cc(Cl)c(CN2CCNC(C(=O)NC3CC3)C2)cc1OC (configuration not stated)")
"FALSE"
>>> category("CN(CCO)CC1COCCN1C(=O)C1(c2cccs2)CCCC1.O=CO (configuration not stated)")
"FALSE"
>>> category("Cl.Cl.OC(CN1CCN(Cc2ccc(F)c(F)c2)CC1)C1CC1 (configuration not stated)")
"FALSE"
>>> category("Cc1cc(SCC(N)=O)nc(-c2ccc(F)cc2)n1")
"FALSE"
>>> category("COc1ccc(-c2ccccc2CCN)c(OC)c1OC")
"FALSE"
>>> category("O=C(CCn1ccnn1)N1CCCC(n2cncn2)C1 (configuration not stated)")
"TRUE"
>>> category("Cc1ncsc1C(=O)OCC1CCN(c2ccccc2)C1 (configuration not stated)")
"FALSE"
>>> category("CC1CCCCN1c1nc2c(c(=O)[nH]1)CCN(Cc1ccccc1F)C2 (configuration not stated)")
"FALSE"

* * *

test system: Plasmodium falciparum; test: Calibr Malaria Delayed Death Assay SOP; type: functional, organism-based; set-up: scale not given: in the data most compounds retested in dose-response had high values; conditions: concentration 4.99e-06 (unit not given; other assays of the set use mol/L)
About 1,200 (3.2%) of roughly 38,000 compounds showed an effect of 50% or more. The median lay at about -58%. The sample as a whole holds a higher share of strong results than the screen did.
Label true when Percent Effect is at or above -20%; anything below gets false.

>>> category("CCN1CC2(CCC1=O)CCN(Cc1cccc(C#N)c1)CC2")
"false"
>>> category("CC(C)Cc1cc(C(=O)NCC2CCCN(Cc3ccco3)C2)on1 (centres undefined)")
"false"
>>> category("CCOCC(O)CN1CCN(C(=O)c2ccccc2Cl)CC1 (centres undefined)")
"false"
>>> category("CCOc1cc(CN(C)CCCO)ccc1OC(F)F")
"false"
>>> category("CN1CC2(CCN(Cc3cccc(C#N)c3)CC2)CC1=O")
"true"
>>> category("CCN(c1ccc(C(=O)NCc2cc[nH]n2)cc1)C(C)C")
"true"
>>> category("NC(=O)c1ccc(CN2C(=O)C3(CCNCC3)Nc3ccccc32)cc1")
"true"
>>> category("Cc1noc(C)c1C(=O)NCc1cc[nH]n1")
"true"
>>> category("Cc1ccc(N(CCC#N)C(=O)CCc2cscn2)cc1C")
"false"
>>> category("CN1CCC(c2cccc(Cc3ccccc3)n2)CC1")
"true"
>>> category("O=C(CN1CCC(c2nnc(C(F)(F)F)o2)CC1)Nc1cccc(Cl)c1")
"false"
>>> category("Cl.O=C1CC2(CCNCC2)C(=O)N1Cc1ccc(F)cc1")
"false"
>>> category("CCc1cc(C(=O)N2CC[C@@H](c3ccc4ccccc4c3)[C@H](O)C2)[nH]n1")
"true"
>>> category("N#Cc1cccc(CN2C(=O)C3(CCNCC3)Nc3ccccc32)c1")
"true"

* * *

tested on: Plasmodium falciparum; test: Calibr Malaria Delayed Death Assay SOP; assay type: functional, organism-based; parameters: scale not given: in the data most compounds retested in dose-response had high values; conditions: concentration 4.99e-06 (unit not given; other assays of the set use mol/L)
Screen size: about 38,000 compounds; about 1,200 (3.2%) showed an effect of 50% or more. The median lay at about -58%. The entries come from a sample that favours strong results as a whole.
parameterMeasured: Percent Effect (%)

>>> testresult("NCC1Cc2cccc(-c3ccc(O)c(F)c3)c2O1 (centres undefined)")
82.73
>>> testresult("O=C(NC1CC1)N1CCc2ncc(CN3CCOCC3)n2CC1.O=C(O)C(F)(F)F")
-16.42
>>> testresult("COc1cc(-c2cccc3c2OC(CN)C3)ccc1O (centres undefined)")
37.76
>>> testresult("CC(C)c1nc(N2CC(N3CCCCC3C)C2)c2cnn(C)c2n1 (centres undefined)")
-59.85

* * *

tested on: Plasmodium falciparum; assay: Calibr Malaria Delayed Death Assay SOP; assay type: functional, organism-based; design: scale not given: in the data most compounds retested in dose-response had high values; conditions: concentration 4.99e-06 (unit not given; other assays of the set use mol/L)
Out of some 38,000 compounds screened, about 1,200 (3.2%) showed an effect of 50% or more. The median lay at about -58%. For the sample, strong results were picked, then their nearest neighbours and some compounds at random.
Listed here: items and their measured Percent Effect.
parameterMeasured: Percent Effect (%)

>>> testresult("CN(C)c1ncc(CNC(=O)Nc2ccccc2C(F)(F)F)n1C")
-113.2
>>> testresult("CC1(C)CN(C(CNS(N)(=O)=O)c2ccc(Cl)cc2)CCO1 (stereo not given)")
-0.7806
>>> testresult("FC1(F)CCNCC12CCN(c1ccccn1)C2 (stereo not given)")
56.42
>>> testresult("CN(C)c1ncc(CNC(=O)Nc2ccc(C(F)(F)F)cc2)n1C")
68.14
>>> testresult("CNS(=O)(=O)C1CCN(c2cc(C(C)C)nc(C(C)C)n2)C1 (stereo not given)")
-29.56
>>> testresult("O=C(O)C(F)(F)F.O=C(O)C(F)(F)F.O=C(O)[C@]12CCCN(Cc3ccsc3)C[C@H]1CN(c1ccccn1)C2")
-252.9
>>> testresult("Cc1ccc(CN(C)C(=O)CCn2c(=O)n(C)c3ccccc32)o1")
-119.3
>>> testresult("CN(Cc1ccc(N(C)C)cc1)C(=O)NCc1nnc2n1CCC2")
-107.1
>>> testresult("Cc1cnn(C2CN(CC(=O)NCCc3cccs3)C2)c1")
-35.32
>>> testresult("CCNc1ncc2c(n1)CN(c1ccc(C)c(C)c1)C2=O")
-153.3

* * *

test system: Plasmodium falciparum; assay: Calibr Malaria Delayed Death Assay SOP; type: functional, organism-based; design: scale not given: in the data most compounds retested in dose-response had high values; conditions: concentration 4.99e-06 (unit not given; other assays of the set use mol/L)
In all, about 38,000 compounds went through this assay and about 1,200 (3.2%) showed an effect of 50% or more. The median lay at about -58%. The entries come from a sample that favours strong results as a whole.
Class boundaries, taken from values of Percent Effect, are as follows: lowest: < -70%; middle: ≥ -70% and < 20%; highest: ≥ 20%

>>> category("COC(=O)c1cccn1C1CCN(C(=O)c2ccc(C)cc2O)CC1")
"middle"
>>> category("CCc1nc(CN2CCCC(N(C)Cc3nc(C)c(C)o3)C2)no1 (stereo not given)")
"middle"
>>> category("O=C(O)C(F)(F)F.O=C(c1c[nH]cn1)N1CCC(F)(F)C2(CCN(c3ncccn3)C2)C1 (stereo not given)")
"middle"
>>> category("COc1cc(C(=O)NCCCO)cc2occc12")
"lowest"
>>> category("CC(CN1CCOCC1)NC(=O)NCCc1ccc(Cl)s1 (stereo not given)")
"middle"
>>> category("COCCN(C)C[C@@H]1CN(C(=O)C(C)(C)c2ccccc2)C[C@@H]1CO")
"highest"
>>> category("FC1(F)CCN(Cc2ccncc2)CC12CCN(c1cccnc1)C2.O=C(O)C(F)(F)F.O=C(O)C(F)(F)F.O=C(O)C(F)(F)F (stereo not given)")
"middle"
>>> category("COC1CCN(CCNC(=O)NC(C)c2ccc(F)c(F)c2)CC1 (stereo not given)")
"highest"
>>> category("CC(C)C(=O)NS(=O)(=O)CCc1ccccc1")
"lowest"
>>> category("CN(C)C(=O)N1CCC2(CC(=O)N(c3cccc(C#N)c3)C2)C1 (stereo not given)")
"middle"
>>> category("O=C(O)C(F)(F)F.O=C(O)C(F)(F)F.OCCN1CC2(CCN(c3ccccc3)C2)C1")
"highest"
>>> category("CC(C)(C)c1nccc(N2CCN(C3CCS(=O)(=O)C3)CC2)n1 (stereo not given)")
"middle"
>>> category("CN(C)CCN(Cc1ccc(C(F)(F)F)cc1)C(=O)c1cc[nH]n1")
"highest"
>>> category("CC(NC(=O)Cn1ccc2sccc2c1=O)c1ccccc1 (stereo not given)")
"lowest"
>>> category("CC(=O)NCCNC(=O)C(c1ccccc1C)N(C)C (stereo not given)")
"lowest"
>>> category("O=C(C1CC2(CCNCC2)CN1)N1CCN(c2cccc(Cl)c2Cl)CC1 (stereo not given)")
"highest"
>>> category("CC(N)Cc1ccccc1Sc1ccc(O)cc1.CC(N)Cc1ccccc1Sc1ccc(O)cc1.O=C(O)C(=O)O (stereo not given)")
"highest"
>>> category("CNS(=O)(=O)CC(=O)NC(C)Cc1ccccc1Br (stereo not given)")
"lowest"
>>> category("O=C(c1ccccc1Cl)N1CC[C@H](O)[C@@H](N2CCOCC2)CC1")
"lowest"
